- target of assay: human δ-opioid receptor, OPRD (Homo sapiens, UniProt P41143)
- Construct: host or cells: HEK-293 overexpressing β-arrestin2 fused to a β-galactosidase fragment
- Sequence (P41143 whole entry, the tested form may be a part): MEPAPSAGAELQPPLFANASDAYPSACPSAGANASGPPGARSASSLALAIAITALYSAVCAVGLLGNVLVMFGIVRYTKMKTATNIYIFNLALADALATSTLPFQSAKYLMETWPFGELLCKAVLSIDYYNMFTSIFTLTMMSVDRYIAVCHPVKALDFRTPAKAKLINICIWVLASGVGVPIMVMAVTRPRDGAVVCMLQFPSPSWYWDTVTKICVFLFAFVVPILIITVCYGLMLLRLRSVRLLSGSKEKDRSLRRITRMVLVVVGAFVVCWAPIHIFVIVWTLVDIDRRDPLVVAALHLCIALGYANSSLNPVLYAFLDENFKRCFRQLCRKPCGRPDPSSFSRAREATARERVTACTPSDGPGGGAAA
- assay remarks: Dominant assay: cAMP assay with/without irreversible antagonist β-CNA, OPRD cell line
- Format: cell-based
- assay setup: no addition of β-CNA; repeated dominant assay, Example 4, Tables 8-10; read-out: OPRD Gi β-CNA (−) EC50
- Source text: To confirm the agonist's efficacy in a nature-like system, we need inactivation of target receptors on the cell membrane. Most cell lines have an abundant target receptor population (also known as spare receptors). Therefore, agonists have more opportunity to constitute agonist-receptor conformation. In this environment, not only full agonists but also partial agonists can reach maximal response. If the partial agonist is selected as a full agonist, translational in vivo research will likely fail. […]
value type: pEC50
In plain terms, pEC50 is the concentration in mol/L turned into minus its base-10 logarithm.

Exercise: # get_value(readout='pEC50', item= Cc1ccccc1NC(=O)NCC(c1ccc2c(c1)CCO2)N(C)C (single isomer, unassigned) [Compound 8] )
Solution: 4.77

Exercise: Form field: reported pEC50 of CN(C)C(CNC(=O)Cc1ccc2c(c1)OCCO2)c1ccccc1 (single isomer, unassigned) [Compound 4]
Solution: 5.06

Exercise: Would you mind telling me what pEC50 value was observed for CN1CCc2cc(C(CNC(=O)Nc3ccc(F)cc3)N(C)C)ccc21 (single isomer, unassigned) [Compound 6] ?
Solution: 5.37

Exercise: Record request: pEC50 value, item CN(C)C(CNC(=O)Cc1ccc2c(c1)OCCO2)c1ccccc1 (single isomer, unassigned) [Compound 5]
Solution: 5.13

----------
- target of assay: human μ-opioid receptor, OPRM (Homo sapiens, UniProt P35372)
- Construct: host or cells: HEK-293 overexpressing β-arrestin2 fused to a β-galactosidase fragment
- Sequence (P35372 whole entry, the tested form may be a part): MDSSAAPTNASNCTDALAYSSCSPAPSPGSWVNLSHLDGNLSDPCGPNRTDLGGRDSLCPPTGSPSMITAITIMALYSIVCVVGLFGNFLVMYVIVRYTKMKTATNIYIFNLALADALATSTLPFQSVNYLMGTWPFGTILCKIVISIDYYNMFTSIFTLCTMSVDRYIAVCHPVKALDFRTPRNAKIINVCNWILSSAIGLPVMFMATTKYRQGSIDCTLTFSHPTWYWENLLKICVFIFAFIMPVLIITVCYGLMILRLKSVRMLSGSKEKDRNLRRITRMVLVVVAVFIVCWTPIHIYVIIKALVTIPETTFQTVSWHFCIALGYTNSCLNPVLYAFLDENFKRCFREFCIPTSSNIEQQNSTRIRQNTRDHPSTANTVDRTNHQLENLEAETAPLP
- assay remarks: Dominant assay: cAMP assay with/without irreversible antagonist β-FNA, OPRM cell line
- Type: cell-based
- assay setup: addition of β-FNA; repeated dominant assay, Example 4, Tables 8-10; read-out: OPRM Gi β-FNA (+) Emax (%)
The threshold is 80%. Values of Emax beneath it are tagged 1.0; values meeting or exceeding it are tagged 0.0.

Exercise: Does the reported Emax of the following compound sit strictly below 80%? Cc1ccccc1NC(=O)NCC(c1ccc2c(c1)CCO2)N(C)C (single isomer, unassigned) [Compound 8]
Solution: 1.0

Exercise: Dear reviewer, please state whether CN1CCc2cc(C(CNC(=O)Nc3ccc(F)cc3)N(C)C)ccc21 (single isomer, unassigned) [Compound 6] has Emax strictly beneath 80%.
Solution: 0.0

Exercise: I'd appreciate it if you could check whether CN(C)C(CNC(=O)Cc1ccc2c(c1)OCCO2)c1ccccc1 (racemic) has Emax smaller than 80%.
Solution: 1.0

Exercise: Hello, I'm reviewing records and need to know if Emax of CN1CCc2cc(C(CNC(=O)Nc3ccc(F)cc3)N(C)C)ccc21 (racemic) [Compound 2] is below 80%. Could you check?
Solution: 1.0

Exercise: Quick check: does Cc1ccccc1NC(=O)NCC(c1ccc2c(c1)CCO2)N(C)C (racemic) [Compound 3] have Emax under 80%?
Solution: 1.0

----------
- target of assay: human δ-opioid receptor, OPRD (Homo sapiens)
- Construct: host or cells: HEK-293 overexpressing β-arrestin2 fused to a β-galactosidase fragment
- assay remarks: cAMP accumulation assay (Gi pathway), OPRD cell line
- Assay type: cell-based
value type: pEC50
Friendly reminder that pEC50 comes from taking -log10 of the concentration in mol/L.

Exercise: Tell me the measured pEC50 of COc1ccsc1CNCC[C@@]1(c2ccccn2)CCOC2(CCCC2)C1 [TRV130, reference compound] , please.
Solution: 5.69

----------
Would you mind telling me the reported EC50 of each entry?
- target of assay: human μ-opioid receptor, OPRM (Homo sapiens)
- Construct: host or cells: HEK-293 overexpressing β-arrestin2 fused to a β-galactosidase fragment
- assay remarks: Dominant assay: cAMP assay with/without irreversible antagonist β-FNA, OPRM cell line
- Type: cell-based
- assay setup: no addition of β-FNA; Example 3, Tables 5-7; read-out: OPRM Gi β-FNA (−) EC50
- From the text: To confirm the agonist's efficacy in a nature-like system, we need inactivation of target receptors on the cell membrane. Most cell lines have an abundant target receptor population (also known as spare receptors). Therefore, agonists have more opportunity to constitute agonist-receptor conformation. In this environment, not only full agonists but also partial agonists can reach maximal response. If the partial agonist is selected as a full agonist, translational in vivo research will likely fail. […]
Give just the numeric value; nM need not be written.

Exercise: Dear colleague, I am looking for the recorded EC50 of the following compound: CN1CCc2cc(C(CNC(=O)Nc3ccc(F)cc3)N(C)C)ccc21 (single isomer, unassigned) [Compound 7]
Solution: 41.6

Exercise: Look at this compound and give its reported EC50. Cc1ccccc1NC(=O)NCC(c1ccc2c(c1)CCO2)N(C)C (single isomer, unassigned) [Compound 9]
Solution: 73.3

Exercise: // EC50 lookup, key: CN(C)C(CNC(=O)Cc1ccc2c(c1)OCCO2)c1ccccc1 (racemic) [Compound 1]
Solution: 2090

Exercise: Which EC50 is listed for Cc1ccccc1NC(=O)NCC(c1ccc2c(c1)CCO2)N(C)C (racemic) [Compound 3] ?
Solution: 656

Exercise: Item under review: CN1CCc2cc(C(CNC(=O)Nc3ccc(F)cc3)N(C)C)ccc21 (racemic) [Compound 2] . Reported EC50?
Solution: 682

Exercise: I am curious: what EC50 value has been reported for Cc1ccccc1NC(=O)NCC(c1ccc2c(c1)CCO2)N(C)C (single isomer, unassigned) [Compound 8] ?
Solution: 734

Source of measurements: patent US20220204449A1
